- TARGET ENTITY: CyclinB1/CDK1 (Homo sapiens, UniProt P14635)
- Construct: purchased Eurofins, discovery 14-450
- EXPERIMENT SUMMARY: Fluorescence Polarization (FP) competitive binding assay, Cyclin B1/Cdk1;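 note: fluorescence polarization read after equilibration at room temperature, with IC50 taken from serially diluted dose-response curves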
- STATED CONDITIONS: 10 nM Cyclin B1/Cdk1, 2 nM FAM probe; average of 2-3 independent experiments; read-out: Cyclin B FP IC50
*1 amine or outer side, *2 acyl side, *3 side chain or, on linkers, in order; H or OH if unused. Where a SMILES comes first, the peptide text is derived from it. Bridges are numbered along the chain shown (N, C = ends). [ ]: non-standard residue; d: D form. The star is where a group is joined. X205 = CC(C)C(=O)N1[C@@H]2COC[C@H]1C=C(c1ccc(F)cc1C[C@@H](C(=O)[*:2])N(C)[*:1])C2; X124 = CC(C)C(=O)N1[C@@H]2CC[C@H]1C=C(c1ccc(F)cc1C[C@@H](C(=O)[*:2])N(C)[*:1])C2; X87 = CN([C@@H](Cc1cc(F)ccc1-c1ccc(N2CCOCC2)cc1)C(=O)[*:2])[*:1]; NMehhhLys(Me) = CN([C@@H](CCCCCCCN(C)[*:3])C(=O)[*:2])[*:1]; NMe(hhhLys) = CN([C@@H](CCCCCCCN[*:3])C(=O)[*:2])[*:1]; cBuCO(3,3-F2-1-CF3) = O=C(C1(C(F)(F)F)CC(F)(F)C1)*; X133 = Cc1ncc(Cl)cc1C[C@@H](C(=O)[*:2])N(C)[*:1]; Pro(trans-4-F) = O=C(O)[C@@H]1C[C@@H](F)CN1; Gly(cPr) = N[C@H](C(=O)O)C1CC1
RECORDED ENDPOINT: IC50 (nM)
Answers are plain numbers, in nM.

A selection of reference data follows.
{"columns": ["COMPOUND", "UOM", "READOUT VALUE"],
 "data": [
  ["CC(C)C[C@@H]1NC(=O)[C@@H](N(C)C(=O)[C@@H](NC(=O)[C@@H]2C[C@@H](F)CN2C(=O)C2(C(F)(F)F)CC(F)(F)C2)C2CC2)CCCCCCCNC(=O)[C@H](Cc2cc(F)ccc2C2=C[C@@H]3CC[C@H](C2)N3C(=O)C(C)C)N(C)C1=O [Example 315] ({cBuCO(3,3-F2-1-CF3)}-[Pro(trans-4-F)][Gly(cPr)][NMe(hhhLys)]L[X124]; lactam 3-C)", "nM", 20],
  ["CC(C)C[C@@H]1NC(=O)[C@@H](N(C)C(=O)[C@@H](NC(=O)[C@@H]2C[C@@H](F)CN2C(=O)C2(C(F)(F)F)CC2)C2CC2)CC=CCCCCNC(=O)[C@H](Cc2cc(Cl)ccc2Cl)N(C)C1=O (single isomer, unassigned) [Example 5-P1]", "nM", 20],
  ["CC(C)C[C@@H]1NC(=O)[C@@H](N(C)C(=O)[C@@H](NC(=O)[C@@H]2C[C@@H](F)CN2C(=O)C2(C(F)(F)F)CC(F)(F)C2)C2CC2)C/C=C\\CCCCN(C)C(=O)[C@H](Cc2cc(Cl)ccc2-c2cnn(C3CC3)c2)N(C)C1=O", "nM", 20],
  ["Cc1ncc(Cl)cc1C[C@H]1C(=O)N(C)CCCCCCC[C@H](N(C)C(=O)[C@@H](NC(=O)[C@@H]2C[C@@H](F)CN2C(=O)C2(C(F)(F)F)CC(F)(F)C2)C2CC2)C(=O)N[C@@H](CC(C)C)C(=O)N1C [Example 322] ({cBuCO(3,3-F2-1-CF3)}-[Pro(trans-4-F)][Gly(cPr)][NMehhhLys(Me)]L[X133]; lactam 3-C)", "nM", 20]
]}

Field: IC50. Fill in for each record below.
1. CC(C)C[C@@H]1NC(=O)[C@@H](N(C)C(=O)[C@@H](NC(=O)[C@@H]2C[C@@H](F)CN2C(=O)C2(C(F)(F)F)CC(F)(F)C2)C2CC2)CCCCCCCNC(=O)[C@H](Cc2cc(F)ccc2C2=C[C@@H]3COC[C@H](C2)N3C(=O)C(C)C)N(C)C1=O [Example 325] ({cBuCO(3,3-F2-1-CF3)}-[Pro(trans-4-F)][Gly(cPr)][NMe(hhhLys)]L[X205]; lactam 3-C)
2. CC(=O)N1CC=C(c2ccc(Cl)cc2C[C@H]2C(=O)N(C)CCCCCC[C@H](N(C)C(=O)[C@@H](NC(=O)[C@@H]3C[C@@H](F)CN3C(=O)C3(C(F)(F)F)CC(F)(F)C3)C3CC3)C(=O)N[C@@H](CC(C)C)C(=O)N2C)CC1
3. CC(C)C[C@@H]1NC(=O)[C@@H](N(C)C(=O)[C@@H](NC(=O)[C@@H]2C[C@@H](F)CN2C(=O)C2(C(F)(F)F)CC(F)(F)C2)C2CC2)CCCCCCCNC(=O)[C@H](Cc2cc(F)ccc2-c2ccc(N3CCOCC3)cc2)N(C)C1=O [Example 334] ({cBuCO(3,3-F2-1-CF3)}-[Pro(trans-4-F)][Gly(cPr)][NMe(hhhLys)]L[X87]; lactam 3-C)

## Output
20
20
20

These entries and their values trace back to patent US20240408169A1.
